assaySystem: human CB2R (Homo sapiens)
Construct: host or cells: CHO cells
methodSummary: CB2R mediated modulation of cAMP synthesis
Type: cell-based
experimentalContext: found through the use of the above described assays (binding and cAMP); CHO cells expressing human CB2R, forskolin-stimulated cAMP
Procedure: B. CB2R Mediated Modulation of cAMP Synthesis: CHO cells expressing human CB2R (Euroscreen) were plated at a density of 5000 cells per well in 384 well plates and incubated overnight at 37° C. […] Cells were lysed and the cAMP concentration was measured using DiscoverX -XS cAMP kit, following the manufacturer's protocol. […] EC50 of agonists were calculated as follows. […] Data was analyzed using a four-parameter logistic model. […]
propertyMeasured: agonistic activity

Worked cases, answers included:
| compound | assaySystem | agonistic activity |
| --- | --- | --- |
| CC(C)(C)c1cc(NC(=O)C(C)(C)S(=O)(=O)c2ccc(Cl)cc2)on1 | human CB2R (Homo sapiens) | agonistic activity |
| Cc1onc(NC(=O)C(C)(C)S(=O)(=O)c2ccc(Cl)cc2)c1C | human CB2R (Homo sapiens) | agonistic activity |
| CC(C)C(C(=O)Nc1nc(C(C)(C)C)cs1)S(=O)(=O)c1ccc(C(F)(F)F)cc1 (stereo not drawn) | human CB2R (Homo sapiens) | agonistic activity |
| CC(C)(C)c1cc(NC(=O)C(C)(C)S(=O)(=O)c2cccc3cccnc23)no1 | human CB2R (Homo sapiens) | agonistic activity |
| CC(C)(C(=O)Nc1cccc(C(F)(F)F)c1)S(=O)(=O)c1ccc(S(C)(=O)=O)cc1 | human CB2R (Homo sapiens) | agonistic activity |

Param readout = agonistic activity; param system = human CB2R (Homo sapiens); param query = "CC(C)(C(=O)Nc1cc(-c2cccs2)no1)S(=O)(=O)c1ccc(Cl)cc1" ; response: value agonistic activity

Requested read-out agonistic activity, target or system human CB2R (Homo sapiens), entry "Cc1ccc(S(=O)(=O)C(C)(C)C(=O)Nc2ccc(C(F)(F)F)cn2)cn1" agonistic activity

Lookup: agonistic activity / human CB2R (Homo sapiens) / "CC(C)(C(=O)Nc1cccc(C(F)(F)F)n1)S(=O)(=O)c1ccc(Cl)cc1F" agonistic activity

Notebook entry, human CB2R (Homo sapiens) assay: agonistic activity of "CC(C)(C(=O)Nc1nnc(C(F)(F)F)s1)S(=O)(=O)c1ccc(Cl)cc1" = ? agonistic activity

Write down the reported agonistic activity of "Cc1c(-c2ccccc2)nn(C)c1NC(=O)C(C)(C)S(=O)(=O)c1ccc(C(F)(F)F)nc1" , test system: human CB2R (Homo sapiens). agonistic activity

Entry "CC(C)(C(=O)Nc1nc(C2CC2)cs1)S(=O)(=O)c1ccc(S(C)(=O)=O)cc1" , system human CB2R (Homo sapiens): what agonistic activity was measured? agonistic activity

Item "CC(C)(C)c1cc(NC(=O)C2(S(=O)(=O)c3ccc(Cl)cc3)CC2)no1" with human CB2R (Homo sapiens) - agonistic activity? agonistic activity

Recorded agonistic activity for "CCCc1cc(NC(=O)C(C)(C)S(=O)(=O)c2ccc(Cl)cc2F)on1" with human CB2R (Homo sapiens), please? agonistic activity

Could you share what agonistic activity was measured for "CC(C)(C(=O)Nc1nc(-c2cccnc2)cs1)S(=O)(=O)c1ccc(F)cc1F" , tested on human CB2R (Homo sapiens)? agonistic activity

What is its agonistic activity for human CB2R (Homo sapiens)? Entry: "CC(C)(C)c1cc(NC(=O)C(C)(C)S(=O)(=O)c2cc(F)ccc2F)no1" agonistic activity

Please state recorded agonistic activity (tested on human CB2R (Homo sapiens)) of "Cc1ccc(S(=O)(=O)C(C)(C)C(=O)Nc2cc(C(C)(C)C)nn2C)cc1" agonistic activity

Recorded agonistic activity for "CC(C)(C)c1cc(NC(=O)C(C)(C)S(=O)(=O)c2ccc(Cl)cc2F)no1" with human CB2R (Homo sapiens), please? agonistic activity

====

assaySystem: human CB2R (Homo sapiens, UniProt P34972)
Construct: host or cells: CHO cells
Sequence (P34972 whole entry): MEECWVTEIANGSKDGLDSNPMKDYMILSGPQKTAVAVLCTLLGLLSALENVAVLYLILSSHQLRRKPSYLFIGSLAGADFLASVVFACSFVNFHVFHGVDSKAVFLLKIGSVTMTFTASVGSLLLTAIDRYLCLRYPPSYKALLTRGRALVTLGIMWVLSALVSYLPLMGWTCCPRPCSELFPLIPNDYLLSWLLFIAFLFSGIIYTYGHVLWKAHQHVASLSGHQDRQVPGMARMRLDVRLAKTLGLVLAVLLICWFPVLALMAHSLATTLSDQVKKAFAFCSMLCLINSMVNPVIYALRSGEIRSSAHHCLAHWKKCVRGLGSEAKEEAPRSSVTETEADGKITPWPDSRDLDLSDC
methodSummary: CB2R mediated modulation of cAMP synthesis
Assay type: cell-based
experimentalContext: found through the use of the above described assays (binding and cAMP); CHO cells expressing human CB2R, forskolin-stimulated cAMP
propertyMeasured: agonistic activity

Worked set:
| sampleSmiles | assaySystem | readoutValue |
| --- | --- | --- |
| CC(C)(C(=O)Nc1ccccc1Cl)S(=O)(=O)c1ccc(C(F)(F)F)cc1 | human CB2R (Homo sapiens, UniProt P34972) | agonistic activity |
| Cc1cc(NC(=O)C(C)(C)S(=O)(=O)c2ccc(Cl)cc2)n(C)n1 | human CB2R (Homo sapiens, UniProt P34972) | agonistic activity |
| Cc1c(-c2ccccc2)nn(C)c1NC(=O)C(C)(C)S(=O)(=O)c1ccc(Cl)cc1 | human CB2R (Homo sapiens, UniProt P34972) | agonistic activity |
| CC(C)(C(=O)Nc1cccc(Cl)c1)S(=O)(=O)c1ccc(Cl)cc1 | human CB2R (Homo sapiens, UniProt P34972) | agonistic activity |

Would you mind telling me what agonistic activity value was observed for "Cc1ccc(S(=O)(=O)C(C)(C)C(=O)Nc2ccc(C(F)(F)F)cn2)cc1" ? agonistic activity

Which measured agonistic activity value corresponds to "Cn1nc(C(C)(C)C)cc1NC(=O)C(C)(C)S(=O)(=O)c1ccc(Cl)nc1" ? agonistic activity

Could you share which agonistic activity value was measured for "CC(C)(C(=O)Nc1cnc2ccccc2c1)S(=O)(=O)c1ccc(F)cc1F" ? agonistic activity

Dear colleague, I am looking for the recorded agonistic activity of the following compound: "CC(C)(C(=O)Nc1cc2ccccc2cn1)S(=O)(=O)c1ccc(C(F)(F)F)nc1" agonistic activity

Could you tell me which agonistic activity is on file for "Cc1ccccc1S(=O)(=O)C(C)(C)C(=O)Nc1nc(C)c(C(C)(C)C)s1" ? agonistic activity

For the compound "CC(C)(C(=O)Nc1ccc2ccccc2n1)S(=O)(=O)c1ccc(Cl)cc1" , what agonistic activity is on record? agonistic activity

====

assaySystem: human CB2R (Homo sapiens)
Construct: host or cells: CHO cells
methodSummary: CB2R mediated modulation of cAMP synthesis
Assay type: cell-based
experimentalContext: found through the use of the above described assays (binding and cAMP); CHO cells expressing human CB2R, forskolin-stimulated cAMP
propertyMeasured: agonistic activity

| sampleSmiles | agonistic activity |
| --- | --- |
| Cn1nc(C(C)(C)C)cc1NC(=O)C(C)(C)S(=O)(=O)c1ccc(C#N)cc1 | agonistic activity |
| Cn1nc(-c2ccccc2)cc1NC(=O)C(C)(C)S(=O)(=O)c1ccc(F)cc1F | agonistic activity |
| CC(C)(C(=O)Nc1ccc(C(F)(F)F)cc1)S(=O)(=O)c1ccc(Cl)cc1 | agonistic activity |
| Cn1nc(C(C)(C)C)cc1NC(=O)C1(S(=O)(=O)c2ccc(C(F)(F)F)cc2)CC1 | agonistic activity |
| O=C(Nc1cccc(C(F)(F)F)n1)C1(S(=O)(=O)c2ccc(C(F)(F)F)cc2)CC1 | agonistic activity |
| CC(C)(C)c1cc(NC(=O)C(C)(C)S(=O)(=O)c2ccc(F)cc2)on1 | agonistic activity |

Need agonistic activity, item "Cc1sc(NC(=O)C(C)(C)S(=O)(=O)c2ccc(Cl)cc2)nc1C(C)(C)C" agonistic activity

Can you look up the measured agonistic activity of "CCc1sc(NC(=O)C(C)(C)S(=O)(=O)c2ccccc2)nc1-c1ccccc1" for me? agonistic activity

Which measured agonistic activity value corresponds to "CC(C)(C)c1csc(NC(=O)C(C)(C)S(=O)(=O)c2ccc(Cl)cc2Cl)n1" ? agonistic activity

Item "CC(C)(C(=O)Nc1cccc(C(F)(F)F)c1)S(=O)(=O)c1ccc(C(F)(F)F)nc1" has what recorded agonistic activity? agonistic activity

Give the measured agonistic activity of "CC(C)(C(=O)Nc1nc(-c2ccccc2)cs1)S(=O)(=O)c1ccc(Cl)cc1" . agonistic activity
